# Assay Name: NFAT Signaling Pathway (AID 444);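 also: carbachol stimulus at about its EC50 of 1 µM final; % is scaled to controls: 0 for no effect and ±100 for the full control effect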
# Condition Info: Jurkat NFAT-bla M1, carbachol, beta-lactamase ratio, 5 h; at 7.69 µM (top of the series) unless noted
Inconclusive results are not listed. Calls of active or inactive are those of the source. Calls follow the shape of the dose curve; as a rule, active = well fitted curve in either direction with a large enough effect (not every such curve was filed as active); inconclusive = small, poorly fitted or top-dose-only effect, or another doubt; inactive = flat fitted curve, though single readings scatter.
Quantity Kind: activity change, negative = inhibition

Structure Smiles String | activity change, negative = inhibition
COc1ccccc1CNc1ccnc(-c2cccc(NS(C)(=O)=O)c2)n1 | 2.18% (inactive)
N=C(N)c1ccc(N=Nc2c(O)ccc3c2[nH]c2ccccc23)cc1 | 8.15% (inactive)
Cc1ccccc1-c1ccc2ncnc(N3CCOCC3)c2c1 | 20.5% (inactive)
COc1cccc(Nc2ncc3nc(-c4ccc(F)cc4)c(=O)n(CCC#N)c3n2)c1 | -6.29% (inactive)
c1cncc(CNc2nc(-c3cccnc3)nc3ccccc23)c1 | -15.2% (inactive)
COc1ccc(Oc2ncc3nc(-c4ccc(F)cc4)c(=O)n(CCC#N)c3n2)cc1 | 1.8% (inactive)
CC1=C(C#N)C(=O)OC(C)(C)C1 | -4.86% [at 17.2 µM] (inactive)
COc1ncc2nc(-c3ccccc3)c(=O)n(CCc3ccccc3)c2n1 | -3.72% (inactive)
COc1ccc(CNc2cc(-c3cccc(NS(C)(=O)=O)c3)ncn2)c(OC)c1 | -10.4% (inactive)
COc1ccc(Oc2ncc3nc(-c4cccc(C#N)c4)c(=O)n(Cc4cccc(OC)c4)c3n2)cc1 | -6.12% (inactive)

Give one value of activity change, negative = inhibition per listed compound.
1. COc1ncc2nc(-c3cccs3)c(=O)n(CCC#N)c2n1
2. COCCn1c(=O)c(CCc2ccccc2)nc2cnc(Oc3ccccc3)nc21
3. O=c1c(CCc2ccccc2)nc2cnc(N3CCNCC3)nc2n1-c1ccccc1
4. Cc1cnc(CNc2ncnc3ccc(-c4ccc(N(C)C)cc4)cc23)cn1
5. COc1ccc2[nH]cc(CCNc3ncnc4ccc(-c5ccoc5)cc34)c2c1
6. c1ccc(CNc2nc(-c3cccnc3)nc3ccccc23)cc1
7. COc1ccccc1CNc1ncncc1-c1ccccc1C(F)(F)F
8. CN(C)C(=O)c1ccc(-c2nc(N3CCOCC3)c3ccccc3n2)cc1

# output
["8.94% (inactive)", "7.7% (inactive)", "6.64% (inactive)", "5.72% (inactive)", "0.633% (inactive)", "-17.2% (inactive)", "-21.7% (inactive)", "21.6% (inactive)"]
